assayed-target: isolated recombinant JAK2 kinase domain (Homo sapiens (Human), UniProt O60674)
Sequence (O60674 849-1124): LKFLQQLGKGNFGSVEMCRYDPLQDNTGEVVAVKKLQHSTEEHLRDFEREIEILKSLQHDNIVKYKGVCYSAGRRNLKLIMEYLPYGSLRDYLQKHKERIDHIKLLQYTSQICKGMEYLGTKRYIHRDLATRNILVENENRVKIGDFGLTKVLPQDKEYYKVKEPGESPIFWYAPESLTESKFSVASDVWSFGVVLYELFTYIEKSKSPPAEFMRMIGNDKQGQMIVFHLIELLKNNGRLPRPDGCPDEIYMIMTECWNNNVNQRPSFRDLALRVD
protocol-notes: JAK2 enzyme assay (Caliper LabChip, peptide phosphorylation)
run-parameters: 25 μM ATP
pKi: −log10 of the molar value.
// label = condition met if pKi is not less than 9, otherwise condition not met

Worked examples follow.
{"columns": ["structure-string", "assigned-class"],
 "data": [
  ["Nc1nn2cccnc2c1C(=O)Nc1cn(CC(=O)N2CCC(N3CC[C@H](O)C3)CC2)nc1-c1cc(Cl)ccc1OC(F)F", "condition met"],
  ["Cc1ccc(CN(C)C2CCN(C(=O)Cn3cc(NC(=O)c4cnn5cccnc45)c(-c4cc(Cl)ccc4OC(F)F)n3)CC2)c(C)c1", "condition not met"],
  ["CN(C)C[C@@H]1CCCN(C(=O)Cn2cc(NC(=O)c3c(N)nn4cccnc34)c(-c3cc(Cl)ccc3OC(F)F)n2)C1", "condition met"],
  ["Nc1nn2cccnc2c1C(=O)Nc1cn(C2CCN(CCCNC(=O)c3ccccc3)CC2)nc1-c1cc(Cl)ccc1OC(F)F", "condition met"],
  ["CN(CCc1ccccc1)C1CCN(c2nc(-c3cc(Cl)ccc3OC(F)F)c(NC(=O)c3cnn4cccnc34)s2)CC1", "condition not met"]
]}

Check the entry CN(Cc1cccc(Br)c1)C1CCN(C(=O)Cn2cc(NC(=O)c3cnn4cccnc34)c(-c3cc(Cl)ccc3OC(F)F)n2)CC1 : does pKi equal or exceed 9? condition met

---

assayed-target: isolated recombinant JAK2 kinase domain (Homo sapiens (Human), UniProt O60674)
protocol-notes: JAK2 enzyme assay (Caliper LabChip, peptide phosphorylation)
run-parameters: 25 μM ATP
pKi: −log10 of the molar value.
// label = t if pKi is not less than 9, otherwise f

{"columns": ["compound", "assigned-class"],
 "data": [
  ["CN(CC1CCC(=O)O1)C1CCN(C(=O)Cn2cc(NC(=O)c3cnn4cccnc34)c(-c3cc(Cl)ccc3OC(F)F)n2)CC1 (stereo not drawn)", "f"]
]}

We now examine a further compound.
Check the entry CN(C)Cc1ccc(-c2nc(-c3cc(Cl)ccc3OC(F)F)c(NC(=O)c3cnn4cccnc34)s2)cc1 : does pKi equal or exceed 9? t

---

assayed-target: isolated recombinant JAK2 kinase domain (Homo sapiens (Human))
protocol-notes: JAK2 enzyme assay (Caliper LabChip, peptide phosphorylation)
run-parameters: 25 μM ATP
measured-metric: Ki (nM)
Supply the numeric figure in nM, leaving out any unit text.

{"columns": ["compound", "unit-abbrev", "Ki"],
 "data": [
  ["O=C(Nc1cn(CC(=O)N2CCC(N3C[C@@H]4C[C@H]3CO4)CC2)nc1-c1cc(Cl)ccc1OC(F)F)c1cnn2cccnc12 [Example 447]", "nM", 1.25],
  ["CN(Cc1ccc(C(C)(C)C)cc1)C1CCN(C(=O)Cn2cc(NC(=O)c3cnn4cccnc34)c(-c3cc(Cl)ccc3OC(F)F)n2)CC1 [Example 120]", "nM", 0.23],
  ["O=C(Nc1cn(CC(=O)N2CCC(O)(c3ccccc3)CC2)nc1-c1cc(Cl)ccc1OC(F)F)c1cnn2cccnc12 [Example 289]", "nM", 0.38]
]}

Could you share what Ki was measured for CN(C)C[C@@H]1CCCN(C(=O)Cn2cc(NC(=O)c3cnn4cccnc34)c(-c3cc(Cl)ccc3OC(F)F)n2)C1 [Example 72] , tested on isolated recombinant JAK2 kinase domain (Homo sapiens (Human))? 4.07

Could you share what Ki was measured for CN1CCC(COC(=O)C2CCN(C(=O)Cn3cc(NC(=O)c4cnn5cccnc45)c(-c4cc(Cl)ccc4OC(F)F)n3)CC2)CC1 [Example 388] , tested on isolated recombinant JAK2 kinase domain (Homo sapiens (Human))? 2.42

Could you share what Ki was measured for CN(Cc1cccc(C(F)(F)F)c1)C1CCN(C(=O)Cn2cc(NC(=O)c3cnn4cccnc34)c(-c3cc(Cl)ccc3OC(F)F)n2)CC1 [Example 128] , tested on isolated recombinant JAK2 kinase domain (Homo sapiens (Human))? 3.09

---

Tested on: JAK1-dependent STAT6 phosphorylation downstream of IL-13 stimulation in TF-1 human erythroleukemia cells
protocol-notes: JAK1 pathway assay in TF-1 cells (IL-13-pSTAT6, MSD)
Format: cell-based
run-parameters: Homo sapiens, TF-1, TF-1 cells, read-out: IL13-pSTAT6 EC50_TF-1
Each entry below carries its reported pEC50.
Please report pEC50 as the negative decimal logarithm of the molar concentration, giving only the number.

Worked set:
{"columns": ["structure-string", "pEC50"],
 "data": [
  ["COCCNCCn1cc(NC(=O)c2cnn3cccnc23)c(-c2cc(Cl)ccc2OC(F)F)n1", 8.21],
  ["CN(CC(F)(F)F)C1CCN(C(=O)c2ccc(-n3cc(NC(=O)c4cnn5cccnc45)c(-c4cc(Cl)ccc4OC(F)F)n3)cc2)CC1", 7.11],
  ["CN(CC1Oc2ccccc2O1)C1CCN(C(=O)Cn2cc(NC(=O)c3cnn4cccnc34)c(-c3cc(Cl)ccc3OC(F)F)n2)CC1", 7.02]
]}

pEC50 for O=C(Nc1cn(CC(=O)N2C[C@H]3CN(CC4CC4)C[C@H]3C2)nc1-c1cc(Cl)ccc1OC(F)F)c1cnn2cccnc12 ? 8.23

pEC50 for O=C(Nc1cn(CC(=O)N2C[C@@H]3CN(C(=O)OCCCO)C[C@@H]3C2)nc1-c1cc(Cl)ccc1OC(F)F)c1cnn2cccnc12 ? 6.48

pEC50 for O=C(Nc1cn(CC(=O)N2C[C@H]3CN(CC(F)(F)F)C[C@H]3C2)nc1-c1cc(Cl)ccc1OC(F)F)c1cnn2cccnc12 ? 8.43

---

Each entry below carries its reported EC50.
System: JAK1-dependent STAT6 phosphorylation downstream of IL-13 stimulation in BEAS-2B human bronchial epithelial cells
protocol-notes: JAK1 pathway assay in BEAS-2B cells (IL-13-pSTAT6, MSD)
Assay type: cell-based
run-parameters: read-out: IL13-pSTAT6 EC50 (uM)_BEAS-2B
Supply the numeric figure in µM, leaving out any unit text.

Worked set:
{"columns": ["compound", "measured-metric", "unit-abbrev", "value-observed"],
 "data": [
  ["C[C@@H]1COCCN1C1CCN(C(=O)Cn2cc(NC(=O)c3cnn4cccnc34)c(-c3cc(Cl)ccc3OC(F)F)n2)CC1", "EC50", "µM", 0.0136],
  ["CN(CC(C)(F)F)C1CCN(C(=O)Cn2cc(NC(=O)c3cnn4cccnc34)c(-c3cc(Cl)ccc3OC(F)F)n2)CC1", "EC50", "µM", 0.0118],
  ["CN(CCc1ccccc1)C1CCN(C(=O)Cn2cc(NC(=O)c3cnn4cccnc34)c(-c3cc(Cl)ccc3OC(F)F)n2)CC1", "EC50", "µM", 0.1],
  ["O=C1CCC(CN2CCN(C(=O)Cn3cc(NC(=O)c4cnn5cccnc45)c(-c4cc(Cl)ccc4OC(F)F)n3)CC2)O1 (centres unmarked)", "EC50", "µM", 0.0257],
  ["O=C(Nc1cn(CCNCc2cccnc2)nc1-c1cc(Cl)ccc1OC(F)F)c1cnn2cccnc12", "EC50", "µM", 0.056]
]}

EC50 for CN(C)C(=O)CN1CCN(C(=O)Cn2cc(NC(=O)c3cnn4cccnc34)c(-c3cc(Cl)ccc3OC(F)F)n2)CC1 ? 0.0651

EC50 for O=C(CN1CCOCC1)Cn1cc(NC(=O)c2cnn3cccnc23)c(-c2cc(Cl)ccc2OC(F)F)n1 ? 0.0395

EC50 for CSCCOC(=O)CNCCn1cc(NC(=O)c2cnn3cccnc23)c(-c2cc(Cl)ccc2OC(F)F)n1 ? 0.0382

EC50 for C[C@H]1COCCN1C1CCN(C(=O)Cn2cc(NC(=O)c3cnn4cccnc34)c(-c3cc(Cl)ccc3OC(F)F)n2)CC1 ? 0.0201

EC50 for O=C(CNCCn1cc(NC(=O)c2cnn3cccnc23)c(-c2cc(Cl)ccc2OC(F)F)n1)OC1CCCC1 ? 0.025

EC50 for CN(C)CC1CCN(c2nc(-c3cc(Cl)ccc3OC(F)F)c(NC(=O)c3cnn4cccnc34)s2)CC1 ? 0.0098

EC50 for O=C(Nc1cn([C@@H]2CNCC[C@H]2O)nc1-c1cc(Cl)ccc1OC(F)F)c1cnn2cccnc12 ? 0.0366

EC50 for O=C(Nc1cn(CC2(O)CCCC2)nc1-c1cc(Cl)ccc1OC(F)F)c1cnn2cccnc12 ? 0.021

EC50 for CC(c1ccccc1)N1CCN(C(=O)Cn2cc(NC(=O)c3cnn4cccnc34)c(-c3cc(Cl)ccc3OC(F)F)n2)CC1 (centres unmarked) ? 0.142

---

assayed-target: isolated recombinant JAK2 kinase domain (Homo sapiens (Human), UniProt O60674)
protocol-notes: JAK2 enzyme assay (Caliper LabChip, peptide phosphorylation)
run-parameters: 25 μM ATP
measured-metric: log10 of Ki (log10 of the value in nM)
Use the decimal logarithm of Ki (nM).

{"columns": ["compound", "assayed-target", "log10 of Ki"],
 "data": [
  ["CN(C)CC1(O)CCN(C(=O)Cn2cc(NC(=O)c3cnn4cccnc34)c(-c3cc(Cl)ccc3OC(F)F)n2)CC1 [Example 74]", "isolated recombinant JAK2 kinase domain (Homo sapiens (Human), UniProt O60674)", 0.38],
  ["CN(Cc1ccc(Cl)c(Cl)c1)C1CCN(C(=O)Cn2cc(NC(=O)c3cnn4cccnc34)c(-c3cc(Cl)ccc3OC(F)F)n2)CC1 [Example 121]", "isolated recombinant JAK2 kinase domain (Homo sapiens (Human), UniProt O60674)", -0.51],
  ["O=C(Nc1cn(CC(=O)N2CCN(CCN3CCSCC3)CC2)nc1-c1cc(Cl)ccc1OC(F)F)c1cnn2cccnc12 [Example 460]", "isolated recombinant JAK2 kinase domain (Homo sapiens (Human), UniProt O60674)", 0.04]
]}

log10 of Ki for CN(C)CCN1CCN(C(=O)Cn2cc(NC(=O)c3cnn4cccnc34)c(-c3cc(Cl)ccc3OC(F)F)n2)CC1 [Example 379] ? 0.37

log10 of Ki for O=C(Nc1cn(CC(=O)N2C[C@H]3CN(CCc4ccccc4)C[C@H]3C2)nc1-c1cc(Cl)ccc1OC(F)F)c1cnn2cccnc12 [Example 13] ? -0.18

log10 of Ki for CN1CCN(C2CCN(C(=O)Cn3cc(NC(=O)c4cnn5cccnc45)c(-c4cc(Cl)ccc4OC(F)F)n3)CC2)C(=O)C1 [Example 448] ? -0.06

log10 of Ki for Nc1nn2cccnc2c1C(=O)Nc1cn(CC(=O)N2CC[C@H](O)C2)nc1-c1cc(Cl)ccc1OC(F)F [Example 270] ? -0.70
